# SYSTEM TESTED: furin, P09958;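 further: purified furin at 1:10 enzyme:substrate in 50 mM HEPES pH 7.5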
# Sequence (P09958 whole entry): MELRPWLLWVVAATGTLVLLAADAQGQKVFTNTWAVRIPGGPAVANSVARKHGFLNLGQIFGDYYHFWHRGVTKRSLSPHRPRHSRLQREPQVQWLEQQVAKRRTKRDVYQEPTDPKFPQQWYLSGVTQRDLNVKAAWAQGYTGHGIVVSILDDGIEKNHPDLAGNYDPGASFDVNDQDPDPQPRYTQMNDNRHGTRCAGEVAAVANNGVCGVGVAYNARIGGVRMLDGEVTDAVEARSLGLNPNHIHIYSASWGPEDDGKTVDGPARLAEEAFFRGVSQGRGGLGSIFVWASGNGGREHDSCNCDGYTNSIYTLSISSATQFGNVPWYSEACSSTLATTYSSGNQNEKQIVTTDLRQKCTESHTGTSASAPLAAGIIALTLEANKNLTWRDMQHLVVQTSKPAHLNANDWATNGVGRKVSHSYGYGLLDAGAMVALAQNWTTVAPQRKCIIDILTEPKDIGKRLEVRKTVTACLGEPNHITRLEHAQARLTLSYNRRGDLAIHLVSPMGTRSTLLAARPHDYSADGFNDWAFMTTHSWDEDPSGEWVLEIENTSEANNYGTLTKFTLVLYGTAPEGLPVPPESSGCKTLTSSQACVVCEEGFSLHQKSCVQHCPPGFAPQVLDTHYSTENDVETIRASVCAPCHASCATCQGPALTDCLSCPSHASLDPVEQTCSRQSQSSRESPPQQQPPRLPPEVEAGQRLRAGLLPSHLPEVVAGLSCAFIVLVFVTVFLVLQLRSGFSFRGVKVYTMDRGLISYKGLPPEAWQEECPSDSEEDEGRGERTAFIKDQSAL
# TEST METHOD NOTES: furin cleavage Z-score vs untreated control; higher = more cleavage, active = 3.5 or more, inactive = 1 or less, 8 variable residues between constant flanks
# MEASUREMENT CONDITIONS: 30 min
The other results are listed elsewhere or left out. No count for the full screen is at hand.
EXPERIMENTAL ENDPOINT: furin cleavage Z-score
Just the number.

Task item: // returns reported furin cleavage Z-score for input CAFTTLPALSAGNASASA [HC500]
Reply: 1.28

Task item: // returns reported furin cleavage Z-score for input CARVARDVAVAGNASASA [FS-3113]
Reply: 9.58

Task item: // returns reported furin cleavage Z-score for input CAKVHRQRRDAGNASASA [FS-48]
Reply: 4.45

Task item: // returns reported furin cleavage Z-score for input CAWPLYGNEGAGNASASA [HC202]
Reply: 0.229

Task item: // returns reported furin cleavage Z-score for input CARVARAMSIAGNASASA [FS-1797]
Reply: 2.57

Task item: // returns reported furin cleavage Z-score for input CARPERGARGAGNASASA [FS-2737]
Reply: 0.188

Task item: // returns reported furin cleavage Z-score for input CAKKGRNRRTAGNASASA [FS-935]
Reply: 7.42

Task item: // returns reported furin cleavage Z-score for input CACHRRMRRGAGNASASA [FS-404]
Reply: 8.21

Task item: // returns reported furin cleavage Z-score for input CARVARFATSAGNASASA [FS-2529]
Reply: 5.25
